TEST METHOD NOTES: Solubility of DN49 in various solvents
Format: physicochemical
RUN CONDITIONS: N-methylbenzylamine, organic solvent or mixture
OBSERVED PROPERTY: solubility

Query block: Sample `O=C1c2ccccc2-n2c1nc1ncccc1c2=O` — what was its solubility?
Result block: > 25 mg/mL

====

TEST METHOD NOTES: Solubility of DN49 in various solvents
Type: physicochemical
RUN CONDITIONS: Diethylamine, organic solvent or mixture
OBSERVED PROPERTY: solubility

Query block: Using the record for `O=C1c2ccccc2-n2c1nc1ncccc1c2=O` , report its solubility.
Result block: < 25 mg/mL
